Origin of values: patent US20220332795A1

The following binders are shown together with reported log10(RLU) values.
- assay_system: human serum albumin (human) (UniProt P02768)
- Sequence (P02768 25-609 limits assumed): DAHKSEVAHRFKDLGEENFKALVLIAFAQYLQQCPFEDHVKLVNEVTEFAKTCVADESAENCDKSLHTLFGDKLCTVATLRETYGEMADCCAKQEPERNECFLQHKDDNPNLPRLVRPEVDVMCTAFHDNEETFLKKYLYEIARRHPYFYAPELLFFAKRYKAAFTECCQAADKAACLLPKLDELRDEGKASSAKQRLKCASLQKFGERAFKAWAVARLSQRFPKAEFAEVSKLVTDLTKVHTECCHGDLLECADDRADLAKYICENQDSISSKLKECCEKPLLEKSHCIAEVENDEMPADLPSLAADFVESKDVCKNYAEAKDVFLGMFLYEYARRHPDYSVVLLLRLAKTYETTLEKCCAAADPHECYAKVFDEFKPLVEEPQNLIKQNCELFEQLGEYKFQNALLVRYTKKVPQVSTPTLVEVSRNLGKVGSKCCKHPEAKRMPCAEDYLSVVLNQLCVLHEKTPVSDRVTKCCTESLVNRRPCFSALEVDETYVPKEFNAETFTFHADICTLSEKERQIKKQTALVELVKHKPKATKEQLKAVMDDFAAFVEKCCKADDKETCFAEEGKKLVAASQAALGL
- method_description: primary solution ELISA screen
The figures below represent log10 of RLU, where RLU is stated in RLU.

[
  {
    "binder": "SEQ ID NO 44 (designed binder, not shown: small tags and cut ends) MLPAPKNLVVSRVTEDSARLSWTAPDAAFDSFFIPYAEPSPTGEAIVLTVPGSERSYDLTGLKPGTEYSVLIHGVKGGHLSDPLSAIVTT",
    "log10(RLU)": 4.75
  },
  {
    "binder": "SEQ ID NO 31 (designed binder, not shown: small tags and cut ends) MLPAPKNLVVSRVTEDSARLSWTAPDAAFDSFTIEYSEHPIDGEAIPLFVPGSERSYDLTGLKPGTEYYVRIHGVKGGWFSHPLWAFFTT",
    "log10(RLU)": 3.67
  },
  {
    "binder": "SEQ ID NO 67 (designed binder, not shown: small tags and cut ends) MLPAPKNLVVSRVTEDSARLSWTAPDAAFDSFTILYAEQAQFGEAIVLTVPGSERSYDLTGLKPGTEYPITGVKGGTRSGPLSAISTT",
    "log10(RLU)": 4.15
  },
  {
    "binder": "SEQ ID NO 17 (designed binder, not shown: small tags and cut ends) MLPAPKNLVVSRVTEDSARLSWTAPDAAFDSFPILYTECVYRGEAIVLTVPGSERSYDLTGLKPGTEYHVPITGVKGGGGSWPLSAIFTT",
    "log10(RLU)": 3.56
  }
]

Field log10(RLU) (entry SEQ ID NO 2 (designed binder, not shown: small tags and cut ends) MLPAPKNLVVSEVTEDSARLSWQGVARAFDSFMINYSELFWMGEAIVLTVPGSERSYDLTGLKPGTEYVVRIKGVKGGKGSWPLHAHFTT ) reads 4.45

Please fill in: log10(RLU) reported for SEQ ID NO 56 (designed binder, not shown: small tags and cut ends) MLPAPKNLVVSRVTEDSARLSWTAPDAAFDSFSIGYVELVLLGEAIVLTVPGSERSYDLTGLKPGTEYDVLIPGVKGGSLSRPLSAIFTT = 4.29

Recorded result, SEQ ID NO 20 (designed binder, not shown: small tags and cut ends) MLPAPKNLVVARVTEDSARLSWTAPDAAIDSFPIDYSEYWWGGEAIVLTVPGSERSYDLTGLKPGTEYPVLITGVKGGYRSGPLSAIFTT , log10(RLU): 4.26

Just so you know, measured log10(RLU) for SEQ ID NO 82 (designed binder, not shown: small tags and cut ends) MLPAPKNLVVSRVTEDSARLSWTAPDAAFDSFLIPYAETSPSGEAIVLTVPGSERSYDLTGLKPGTEYSVLIHGVKGGDYSSPLSAIFTT came out at 4.17
